Item-by-item account of melting point

Worked cases, answers included:
[
  {
    "molecule": "O=C(O)c1ccc2c(c1-c1c(C(=O)O)ccc3c1OCO3)OCO2",
    "quantity-kind": "melting point",
    "experimental-result": "253 to 255 °C"
  },
  {
    "molecule": "O=C(Nc1ccccc1)C1C(=O)Sc2ccccc21 (stereo unspecified)",
    "quantity-kind": "melting point",
    "experimental-result": "140 to 142 °C"
  },
  {
    "molecule": "COc1cc2ncc(C#N)c(Nc3cccc(C(=O)O)c3C)c2cc1OC",
    "quantity-kind": "melting point",
    "experimental-result": "242 to 245 °C"
  },
  {
    "molecule": "Cc1cc(C)nc(NC(C(=O)O)C(c2ccccc2)c2ccccc2)n1 (stereo unspecified)",
    "quantity-kind": "melting point",
    "experimental-result": "172 to 174 °C"
  },
  {
    "molecule": "CCC(=O)N1CCC(NC(=O)Nc2ccccc2)CC1",
    "quantity-kind": "melting point",
    "experimental-result": "169 to 171 °C"
  }
]

Next molecule, melting point to be filled in.
Given CC(=O)Oc1ccc(CCC2CC(C)(OC(C)=O)CC(=O)O2)cc1 (stereo unspecified) , state its recorded melting point.
72 to 75 °C

---

# key: entry, value: melting point

The following compounds have reported results that may help.
[
  {
    "compound": "CC12CCC(C(=Cc3ccc(O)cc3)C1=O)C2(C)C (stereo not given)",
    "melting point": "220 °C"
  },
  {
    "compound": "Cn1ccnc1COc1ccccc1[N+](=O)[O-]",
    "melting point": "172 to 174 °C"
  },
  {
    "compound": "COc1ccc(SCCNC(=O)N2CCCC2=O)cc1",
    "melting point": "64 to 65 °C"
  },
  {
    "compound": "COCc1c(C(=O)OC(C)C)ncc2[nH]c3cccc(OCc4ccccc4)c3c12",
    "melting point": "173 to 174 °C"
  },
  {
    "compound": "COc1ccc(CSc2nnc(-c3ccc4nccn4c3)o2)cc1",
    "melting point": "155 to 156 °C"
  },
  {
    "compound": "CC1(C2CCCC2)Cc2cc(OS(=O)(=O)C(F)(F)F)c(Cl)c(Cl)c2C1=O (single isomer, unassigned; (+))",
    "melting point": "104 to 106 °C"
  }
]

// below: melting point requested for another compound
Which melting point is reported for this compound? CN1CCN(c2c(CO)cnc3c(NC(=O)c4c(Cl)cccc4Cl)cccc23)C1=S
253 to 254 °C

---

# melting point per record follows

Guide cases for melting point, answers given:
[
  {
    "compound": "CCCCOc1ccc2c(c1)C(N(CC(=O)NC(=N)N)S(C)(=O)=O)CC(C)(C)O2 (stereo unspecified)",
    "melting point": "112 to 114 °C"
  },
  {
    "compound": "O=C(O)c1ccc(C=Cc2cc3ccccc3s2)s1",
    "melting point": "236 to 237 °C"
  }
]

Returns the measured melting point for the input compound. Input: CC1OC(O)(Cl)CC(NC(=O)C(F)(F)F)C1(O)OC(=O)C(F)(F)F (stereo unspecified)
132 to 134 °C

Quick one: melting point for CC1=Nc2ccccc2C1(C)CCCCCC(=O)O (stereo unspecified) ?
115 to 118 °C

Find the recorded melting point belonging to CCOC(=O)CC(=O)c1cc(F)c(S(=O)CC)nc1Nc1ccc(F)cc1F (stereo unspecified) and report it.
115 to 116 °C

Which melting point is reported for this compound? CC(C)(C)NC(=O)N(C(=O)C1CCC2C3CC=C4C=C(C(=O)O)CCC4(C)C3CCC12C)C(C)(C)C (stereo unspecified)
118 to 120 °C

Could you share which melting point value was measured for CC(=O)NCC1CN=C(c2ccccc2)c2cc(Cl)ccc2N1 (stereo unspecified) ?
240 to 245 °C

Give the measured melting point of CN(C)CCNC(=O)c1cccc(N)c1 .
97 to 100 °C

Entry C=CCn1c(-c2cccnc2)nn(CCCCN2CCN(c3ccccc3OC)CC2)c1=O : reported melting point = ?
71 to 75 °C

Quick one: melting point of CNS(=O)(=O)c1c(C)cc(OC)cc1C ?
131 °C

---

quantity-kind: melting point

[
  {
    "compound": "CCOCc1nc2c(N)nc3ccccc3c2n1CC1(OCCS(C)(=O)=O)CCNCC1",
    "melting point": "212 to 214 °C"
  },
  {
    "compound": "O=C(NCc1ccccc1)c1ccc(F)c2c1CC(N(CCCc1c[nH]c3ccc(F)cc13)C1CCC1)CO2 (stereo not given)",
    "melting point": "124 °C"
  }
]

Any idea what melting point was measured for COc1ccc(C2=CCN(Cc3n[nH]c4ccccc34)CC2)cc1 ?
157 to 159 °C

# lookup: melting point of CC(=O)OCCC1CC(=O)N1 (stereo not given)
44 to 47 °C

What does the data say about its melting point? Entry: C=CCn1nc(C)c(C(=O)c2ccc(Cl)cc2Cl)c1OS(=O)(=O)c1ccc(C)cc1
113 to 114 °C

---

Items are presented alongside their recorded melting point.

[
  {
    "compound": "CC1=CC(OC(=O)c2ccc([N+](=O)[O-])cc2Cl)C(O)C(C)(C)CC1=O (stereo not given)",
    "melting point": "108 to 110 °C"
  },
  {
    "compound": "CC(=O)OCC1OC(F)C(N2C(=O)c3ccccc3C2=O)C(OC(C)=O)C1OC(C)=O (stereo not given)",
    "melting point": "116 °C"
  },
  {
    "compound": "COc1cccc2c(=O)[nH]c(-c3cc(C)c(OCCN4CCCC4)c(C)c3)nc12",
    "melting point": "231 to 232 °C"
  },
  {
    "compound": "O=C(O)[C@@H]1C[C@H]2C[C@H](CCS(=O)(=O)O)CC[C@H]2CN1 (racemic)",
    "melting point": "265 °C"
  },
  {
    "compound": "COc1ccc(C(=O)Nc2ccccc2)cc1CNS(=O)(=O)c1cc(Cl)cc(Cl)c1",
    "melting point": "203 to 206 °C"
  }
]

# input for lookup
Entry CN1N=C2c3cc(F)ccc3SCC2CC1=O (stereo not given) has what melting point?
125 to 128 °C

---

The following compounds are shown together with reported melting point values.

Solved cases (10 shown):
[
  {
    "compound": "CCCCCCCCCCCCc1ccc(CCC(N)(CO)CCO)cc1 (stereo unspecified)",
    "melting point": "75 to 77 °C"
  },
  {
    "compound": "O=C1N(Nc2ccccc2)C(=S)OC12c1ccccc1-c1ccccc12",
    "melting point": "187 to 189 °C"
  },
  {
    "compound": "CC(=O)OC1CC(=O)N1 (stereo unspecified)",
    "melting point": "152 to 154 °C"
  },
  {
    "compound": "O=C(NCCCCOc1ccc(-n2ccnc2)cc1)c1ccccc1",
    "melting point": "117 to 118 °C"
  },
  {
    "compound": "Cc1nc2cc3c(cc2c(=O)[nH]1)C(N(C)c1ccc(C(=O)NC(CCc2nnn[nH]2)C(=O)O)c(F)c1)CC3 (mixture of isomers)",
    "melting point": "203 to 205 °C"
  },
  {
    "compound": "COc1ccc(OC)c2c1C[C@](O)(C1(C)OCCO1)CC21SCCS1",
    "melting point": "143 to 145 °C"
  },
  {
    "compound": "CN1C(=S)N(c2ccc(C#N)c(C(F)(F)F)c2)C(=O)C1(C)C",
    "melting point": "171 °C"
  },
  {
    "compound": "CCCCCc1c(C(C)C)cc(C(C)C)c(C(C)=O)c1-c1ccc(F)cc1",
    "melting point": "123 to 124 °C"
  },
  {
    "compound": "Cc1cn2cccc(C=O)c2n1",
    "melting point": "123 to 125 °C"
  },
  {
    "compound": "C#CCSc1nn(C(=O)NS(=O)(=O)c2c(C)csc2C(=O)OCC)c(=O)n1C",
    "melting point": "175 °C"
  }
]

Would you mind telling me what melting point value was observed for CCCCOC(=O)c1cc2cccc(OC)c2[nH]1 ?
66 to 69 °C

// melting point lookup, key: FC(F)(F)c1ccc2c(c1)ncn2-c1cccc(I)c1
86 to 87 °C

Can you share its melting point? I mean this compound: CC(=O)OCCOc1ccc(C2C(=O)Oc3c2cc(C(C)(C)C)cc3C(C)(C)C)cc1 (stereo unspecified)
75 to 78 °C

---

Reported melting point values are given for each entry in this list.

Worked examples, 10 molecules total:
[
  {
    "molecule": "CCCCOC(=O)Cc1ccc(N2CCN(CCc3cc(C(C)(C)C)c(O)c(C(C)(C)C)c3)CC2)cc1",
    "melting point": "103 to 105 °C"
  },
  {
    "molecule": "CN(CCOc1ccc([N+](=O)[O-])cc1)c1ccncc1",
    "melting point": "88 to 89 °C"
  },
  {
    "molecule": "OCCCCCCOc1ccc(OCc2ccccc2)cc1",
    "melting point": "94 to 97 °C"
  },
  {
    "molecule": "O=C(NCCc1ccc(Cl)cc1Cl)Nc1cccc2[nH]ccc12",
    "melting point": "170 °C"
  },
  {
    "molecule": "O=C(O)CC1CCN(c2ccc3c(NC(=O)CC4CCCCC4)c(Cl)ccc3n2)CC1",
    "melting point": "242 to 244 °C"
  },
  {
    "molecule": "CC1(C)c2ccc(C(F)CN3CCN(c4nsc5ccccc45)CC3)cc2C(C)(C)C1O (stereo not given)",
    "melting point": "49 to 54 °C"
  },
  {
    "molecule": "Fc1ccc(-c2c(-c3ccccc3)oc3ncnc(Cl)c23)cc1",
    "melting point": "124 to 127 °C"
  },
  {
    "molecule": "O=C(O)c1cn(-c2cc(F)cc(C(F)(F)F)c2)cn1",
    "melting point": "> 250 °C"
  },
  {
    "molecule": "CCC(=NC#N)N[C@@H]1c2cc(C#N)ccc2OC(C)(C)[C@H]1O (relative stereo)",
    "melting point": "122 to 124 °C"
  },
  {
    "molecule": "O=C1c2ccccc2C(=O)N1CCc1ccc2c(c1)OCO2",
    "melting point": "139 to 140 °C"
  }
]

Name the recorded melting point for CSc1ccc(Br)cc1C(=O)Cn1cccc1 .
138 to 139 °C

# lookup: melting point of CC(Cc1ccc(OCCNC(=O)c2ccc(-c3ccccn3)cc2)cc1)(Oc1ccccc1)C(=O)O (stereo not given)
76 to 79 °C

Returns the measured melting point for the input molecule. Input: CC1(C)C2=C(Cl)C(=O)C(Cl)=CC2=Nc2ccc(O)cc21
< 250 °C

Using the record for CCCC(=NOCC)C1=C(O)CC(c2ccc(S(C)=O)cc2)CC1=O (stereo not given) , report its melting point.
72 to 74 °C
